Listed here: items and their measured pIC50.
EXPERIMENTAL_TARGET: human P2X3 receptor (Homo sapiens (Human), UniProt P56373)
Sequence (P56373 whole entry): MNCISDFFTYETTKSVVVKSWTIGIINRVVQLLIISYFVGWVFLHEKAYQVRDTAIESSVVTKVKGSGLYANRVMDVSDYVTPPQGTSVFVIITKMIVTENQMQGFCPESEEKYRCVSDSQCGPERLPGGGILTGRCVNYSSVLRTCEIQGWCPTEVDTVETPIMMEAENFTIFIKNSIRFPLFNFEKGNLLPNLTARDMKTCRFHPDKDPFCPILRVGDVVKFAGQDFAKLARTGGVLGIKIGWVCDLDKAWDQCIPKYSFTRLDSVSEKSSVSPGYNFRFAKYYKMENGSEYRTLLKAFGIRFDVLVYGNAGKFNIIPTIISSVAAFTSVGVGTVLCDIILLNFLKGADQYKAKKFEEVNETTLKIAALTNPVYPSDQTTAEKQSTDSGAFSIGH
MEASUREMENT_NOTES: Evaluation of human P2X3 receptor inhibitory activity (Test Example 1-2, FLIPR 384, 384-well, 150 nM ATP)
Assay type: cell-based
ASSAY_SETUP: human P2X3 receptor in C6BU-1 cells; Test Example 1-2 (compounds I-301 to I-483); read-out: P2X3 IC50
pIC50: −log10 of the molar value.
PARAMETER: pIC50

* CC(C)CNC(=O)c1cn(Cc2ccc(Cl)cc2)c(Nc2ccc(Oc3cccc(F)n3)cc2)nc1=O | 7.34
* O=C(NC1(CO)CCOCC1)c1cn(Cc2ccc(Cl)cc2)c(Nc2ccc(Oc3cccc(F)n3)cc2)nc1=O | 7.23
* NC(=O)c1cccc(Oc2ccc(/N=c3\[nH]cc(N4CCCC4=O)c(=O)n3Cc3ccc(Cl)cc3)cc2)n1 | 6.64
* Cc1c[nH]c2cc(Nc3ncc(NC(=O)C4CCOCC4)c(=O)n3Cc3ccc(Cl)cc3)ccc12 | 6.05

---

Listed here: items and their measured pIC50.
EXPERIMENTAL_TARGET: human P2X3 receptor (Homo sapiens (Human), UniProt P56373)
MEASUREMENT_NOTES: Evaluation of human P2X3 receptor inhibitory activity (Test Example 1-1, FDSS 3000, 96-well, 50 nM ATP)
Type: cell-based
ASSAY_SETUP: human P2X3 receptor in C6BU-1 cells; Test Example 1-1 (compounds I-001 to I-300)
pIC50: −log10 of the molar value.
PARAMETER: pIC50

* CCc1oc2ccc(/N=c3\[nH]cc(C=O)c(=O)n3Cc3ccc(Cl)cc3)cc2c1C | 6.65
* O=c1c(NC(=O)[C@H]2C[C@H](O)C2)c[nH]/c(=N\c2ccc(Oc3ccc(F)cn3)cc2)n1Cc1ccc(Cl)cc1 | 8.40
* CCCn1c(=O)cc(Nc2ccc(Oc3cccc(C(=O)O)n3)cc2)n(Cc2ccc(Cl)cc2)c1=O | 8.52
* NC(=O)c1cccc(Oc2ccc(/N=c3\[nH]cc(C(N)=O)c(=O)n3Cc3ccc(Cl)cc3)cc2)n1 | 7.85
* CCn1c(=O)cc(Nc2ccc(Oc3ccc(C(=O)OC)cc3)nc2)n(Cc2ccc(Cl)cc2)c1=O | 7.19
* O=C(Nc1cnc(Nc2ccc(Oc3ncccc3F)cc2)n(Cc2ccc(Cl)cc2)c1=O)C1CCOCC1 | 8.70
* COC(=O)Nc1c[nH]/c(=N\c2ccc(Oc3cccc(C(N)=O)n3)cc2)n(Cc2ccc(Cl)cc2)c1=O | 7.64

---

EXPERIMENTAL_TARGET: human P2X3 receptor (Homo sapiens (Human))
MEASUREMENT_NOTES: Evaluation of human P2X3 receptor inhibitory activity (Test Example 1-1, FDSS 3000, 96-well, 50 nM ATP)
Type: cell-based
ASSAY_SETUP: human P2X3 receptor in C6BU-1 cells; Test Example 1-1 (compounds I-001 to I-300)
PARAMETER: IC50 (nM)

• CCn1c(=O)cc(Nc2ccc(Oc3cncc(C(N)=O)c3)cc2)n(Cc2ccc(Cl)cc2)c1=O = 11
• N#Cc1ccc(Oc2ccc(Nc3nc(=O)c(C(=O)NC4CCOCC4)cn3Cc3ccc(Cl)cc3)cc2)cn1 = 7
• CCCn1c(=O)cc(Nc2ccc(Oc3cccc(C#N)n3)cn2)n(Cc2ccc(Cl)cc2)c1=O = 21
• CN/C(=N\C#N)Nc1c[nH]/c(=N\c2ccc(Oc3ccon3)cc2)n(Cc2ccc(Cl)cc2)c1=O = 557
• Cc1cnc(-c2c[nH]/c(=N\c3ccc(Oc4ccon4)cc3)n(Cc3ccc(Cl)cc3)c2=O)o1 = 84
• CCn1c(=O)cc(Nc2ccc(Oc3cccc(C(=O)O)c3)cc2)n(Cc2ccc(Cl)cc2)c1=O = 3
• CCn1c(=O)cc(Nc2ccc(Oc3cccc(C(=O)O)c3)nc2)n(Cc2ccc(Cl)cc2)c1=O = 49
